Where these numbers come from: patent US20260021103A1

Target: CK1α (Homo sapiens, UniProt P48729+Q96SW2)
Construct: expressed in transfected cells; host or cells: HEK293T (lentiviral transduction, puromycin selection, FACS sorting)
Sequence (P48729 whole entry): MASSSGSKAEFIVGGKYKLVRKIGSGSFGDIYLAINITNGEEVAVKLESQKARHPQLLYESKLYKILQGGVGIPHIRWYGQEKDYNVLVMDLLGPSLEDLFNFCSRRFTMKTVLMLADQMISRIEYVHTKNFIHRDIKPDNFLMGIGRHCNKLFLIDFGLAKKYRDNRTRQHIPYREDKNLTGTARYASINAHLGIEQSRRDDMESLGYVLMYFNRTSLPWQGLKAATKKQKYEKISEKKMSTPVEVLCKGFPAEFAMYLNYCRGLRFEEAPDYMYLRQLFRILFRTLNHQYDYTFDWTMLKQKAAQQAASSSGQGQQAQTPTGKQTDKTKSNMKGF
Sequence (Q96SW2 whole entry): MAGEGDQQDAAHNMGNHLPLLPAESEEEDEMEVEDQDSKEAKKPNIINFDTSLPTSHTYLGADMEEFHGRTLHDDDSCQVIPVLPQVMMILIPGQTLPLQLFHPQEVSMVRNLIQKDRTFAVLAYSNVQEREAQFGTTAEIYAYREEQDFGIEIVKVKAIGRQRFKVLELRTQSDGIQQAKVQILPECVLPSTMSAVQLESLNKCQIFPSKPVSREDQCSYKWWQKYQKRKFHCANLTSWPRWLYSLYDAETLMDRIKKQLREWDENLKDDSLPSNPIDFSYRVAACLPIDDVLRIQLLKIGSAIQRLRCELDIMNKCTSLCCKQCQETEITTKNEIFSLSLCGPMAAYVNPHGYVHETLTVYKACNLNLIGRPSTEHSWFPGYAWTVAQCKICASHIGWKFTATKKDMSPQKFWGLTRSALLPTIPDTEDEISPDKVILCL
Sequence (Q16531 whole entry partner): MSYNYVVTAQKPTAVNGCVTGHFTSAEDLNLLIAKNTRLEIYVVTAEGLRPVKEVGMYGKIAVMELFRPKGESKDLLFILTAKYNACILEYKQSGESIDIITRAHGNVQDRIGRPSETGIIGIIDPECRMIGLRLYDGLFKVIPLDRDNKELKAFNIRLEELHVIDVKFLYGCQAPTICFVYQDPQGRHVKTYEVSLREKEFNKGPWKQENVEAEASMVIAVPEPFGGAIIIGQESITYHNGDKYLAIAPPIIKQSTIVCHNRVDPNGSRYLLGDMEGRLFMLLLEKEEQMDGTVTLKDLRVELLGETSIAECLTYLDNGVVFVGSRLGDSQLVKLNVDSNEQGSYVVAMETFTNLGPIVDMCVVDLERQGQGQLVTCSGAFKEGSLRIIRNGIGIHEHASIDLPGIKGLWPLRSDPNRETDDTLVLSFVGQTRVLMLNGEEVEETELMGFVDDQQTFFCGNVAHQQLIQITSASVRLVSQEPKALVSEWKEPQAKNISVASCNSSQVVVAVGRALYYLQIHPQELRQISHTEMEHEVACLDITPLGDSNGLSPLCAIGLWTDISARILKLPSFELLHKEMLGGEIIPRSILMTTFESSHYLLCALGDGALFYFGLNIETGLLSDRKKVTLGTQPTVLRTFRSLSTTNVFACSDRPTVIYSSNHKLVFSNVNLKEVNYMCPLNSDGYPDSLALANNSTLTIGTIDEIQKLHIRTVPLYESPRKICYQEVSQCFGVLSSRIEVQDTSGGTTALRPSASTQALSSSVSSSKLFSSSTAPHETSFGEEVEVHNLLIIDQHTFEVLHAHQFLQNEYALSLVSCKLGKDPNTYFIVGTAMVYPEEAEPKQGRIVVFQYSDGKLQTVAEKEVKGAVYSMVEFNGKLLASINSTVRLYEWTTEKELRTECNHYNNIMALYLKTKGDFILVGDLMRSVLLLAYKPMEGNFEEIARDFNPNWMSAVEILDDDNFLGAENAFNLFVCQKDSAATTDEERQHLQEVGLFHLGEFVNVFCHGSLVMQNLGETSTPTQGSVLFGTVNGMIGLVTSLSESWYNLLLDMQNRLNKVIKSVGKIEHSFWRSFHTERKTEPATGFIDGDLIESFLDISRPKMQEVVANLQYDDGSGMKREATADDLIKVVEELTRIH
Test: Flow cytometry for measuring degradation, HEK293T GFP-POI reporter cells (CK1α)
Assay type: cell-based
Details: 100 nM, 24 h, HEK293T GFP reporter
recorded.metric: CK1α % degradation at 100 nM (%)
Number only, in %; omit the unit.

Some compounds with recorded CK1α % degradation at 100 nM:
COc1ccc(Oc2cccc(C(=O)Nc3ccc4c(c3)CN(C3CCC(=O)NC3=O)C4=O)c2)cc1 (stereo not shown) [DEG-69] = 64.8
CN1C(=O)COc2cc(C(=O)Nc3ccc4c(c3)CN(C3CCC(=O)NC3=O)C4=O)ccc21 (stereo not shown) [DEG-94] = 51.3
COc1cc(Oc2ccccc2)ccc1C(=O)Nc1ccc2c(c1)CN(C1CCC(=O)NC1=O)C2=O (stereo not shown) [DEG-75] = 48.1

Attention now turns to another entry.
Recorded CK1α % degradation at 100 nM for CS(=O)(=O)c1ccc2cc(C(=O)Nc3ccc4c(c3)CN(C3CCC(=O)NC3=O)C4=O)ccc2c1 (stereo not shown) [DEG-93] , please?
60.2

----------
Molecular target: IKZF1 (Homo sapiens, UniProt Q13422+Q96SW2)
Construct: expressed in transfected cells; host or cells: HEK293T (lentiviral transduction, puromycin selection, FACS sorting)
Sequence (Q13422 whole entry, one chain of several): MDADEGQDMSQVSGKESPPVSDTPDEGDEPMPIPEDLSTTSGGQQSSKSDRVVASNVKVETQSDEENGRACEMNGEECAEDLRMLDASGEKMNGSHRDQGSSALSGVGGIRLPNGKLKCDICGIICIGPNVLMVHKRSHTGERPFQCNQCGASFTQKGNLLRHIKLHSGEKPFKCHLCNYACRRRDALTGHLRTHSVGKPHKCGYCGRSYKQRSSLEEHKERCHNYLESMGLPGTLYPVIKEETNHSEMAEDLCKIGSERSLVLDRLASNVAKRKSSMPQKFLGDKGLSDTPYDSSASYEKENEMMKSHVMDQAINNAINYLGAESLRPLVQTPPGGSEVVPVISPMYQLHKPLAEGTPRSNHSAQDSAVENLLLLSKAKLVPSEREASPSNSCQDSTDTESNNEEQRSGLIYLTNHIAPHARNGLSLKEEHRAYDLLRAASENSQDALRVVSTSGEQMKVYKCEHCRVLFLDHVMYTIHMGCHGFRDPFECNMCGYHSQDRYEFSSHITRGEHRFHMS
Experiment: Flow cytometry for measuring degradation, HEK293T GFP-POI reporter cells (IKZF1)
Type: cell-based
Conditions: 1 μM, 24 h, HEK293T GFP reporter
Assign true (1) to entries whose IKZF1% degradation at 1 μM meets or exceeds 10%; assign false (0) to the rest.

Answered cases to consult:
O=C1CCC(N2Cc3cc(NC(=O)c4ccc5cc(O)ccc5c4)ccc3C2=O)C(=O)N1 (stereo not drawn) = false (0)
O=C1CCC(N2Cc3cc(NC(=O)c4ccc5ncsc5c4)ccc3C2=O)C(=O)N1 (stereo not drawn) = false (0)
O=C1CCC(N2Cc3cc(NC(=O)C4=COc5ccccc5O4)ccc3C2=O)C(=O)N1 (stereo not drawn) = true (1)
O=C1CCC(N2Cc3cc(NC(=O)c4ccc(Sc5ccccc5)cc4)ccc3C2=O)C(=O)N1 (stereo not drawn) = true (1)

Hi, just wondering whether O=C1CCC(N2Cc3cc(NC(=O)C4=Cc5ccccc5OC4)ccc3C2=O)C(=O)N1 (stereo not drawn) shows IKZF1% degradation at 1 μM of 10% or higher.
true (1)

What do you get for C[C@H](NC(=O)c1ccccc1)C(=O)Nc1ccc2c(c1)CN(C1CCC(=O)NC1=O)C2=O (stereo partly drawn) ?
true (1)

Same question, N#Cc1ccc2cc(C(=O)Nc3ccc4c(c3)CN(C3CCC(=O)NC3=O)C4=O)ccc2c1 (stereo not drawn) this time
true (1)

Further, for COc1cc(Br)cc2c1OCC(C(=O)Nc1ccc3c(c1)CN(C1CCC(=O)NC1=O)C3=O)=C2 (stereo not drawn) ?
true (1)

Repeat for the following molecule: CN1C(=O)CCc2cc(C(=O)Nc3ccc4c(c3)CN(C3CCC(=O)NC3=O)C4=O)ccc21 (stereo not drawn)
false (0)

Cool, now O=C(/C=C/c1ccccc1)Nc1ccc2c(c1)CN(C1CCC(=O)NC1=O)C2=O (stereo not drawn)
true (1)

Repeat with O=C1CCC(N2Cc3cc(NC(=O)C4=Cc5ccc(OC(F)(F)F)cc5OC4)ccc3C2=O)C(=O)N1 (stereo not drawn)
true (1)

Try this molecule next: O=C1CCC(N2Cc3cc(NC(=O)c4ccc5c(c4)OCCO5)ccc3C2=O)C(=O)N1 (stereo not drawn)
false (0)

Now the same for COc1ccc(Oc2cccc(C(=O)Nc3ccc4c(c3)CN(C3CCC(=O)NC3=O)C4=O)c2)cc1 (stereo not drawn)
true (1)

How about Cc1ccc2c(c1)OCC(C(=O)Nc1ccc3c(c1)CN(C1CCC(=O)NC1=O)C3=O)=C2 (stereo not drawn) ?
true (1)

Try the molecule COc1cccc2c1OCC(C(=O)Nc1ccc3c(c1)CN(C1CCC(=O)NC1=O)C3=O)=C2 (stereo not drawn)
true (1)

Record: COc1ccc(/C=C/C(=O)Nc2ccc3c(c2)CN(C2CCC(=O)NC2=O)C3=O)cc1 (stereo not drawn)
true (1)

Proceed to O=C1CCC(N2Cc3cc(NC(=O)C4=Cc5ccc(C(F)(F)F)cc5OC4)ccc3C2=O)C(=O)N1 (stereo not drawn)
true (1)

----------
Molecular target: GSPT1 (Homo sapiens, UniProt P15170+Q96SW2)
Sequence (P15170 whole entry, one chain of several): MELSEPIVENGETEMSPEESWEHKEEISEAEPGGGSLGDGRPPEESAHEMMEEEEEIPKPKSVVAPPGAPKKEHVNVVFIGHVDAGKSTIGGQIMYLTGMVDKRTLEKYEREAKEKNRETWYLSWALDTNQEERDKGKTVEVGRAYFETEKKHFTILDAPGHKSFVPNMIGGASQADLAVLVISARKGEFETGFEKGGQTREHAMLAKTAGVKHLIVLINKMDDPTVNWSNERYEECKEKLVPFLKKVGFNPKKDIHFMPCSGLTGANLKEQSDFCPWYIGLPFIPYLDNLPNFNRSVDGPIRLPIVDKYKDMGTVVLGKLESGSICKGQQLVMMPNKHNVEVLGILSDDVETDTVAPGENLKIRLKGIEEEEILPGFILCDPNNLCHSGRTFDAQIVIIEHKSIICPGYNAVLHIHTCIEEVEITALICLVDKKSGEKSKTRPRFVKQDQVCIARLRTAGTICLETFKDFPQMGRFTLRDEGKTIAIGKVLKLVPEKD
Assay: Flow cytometry for measuring degradation, HEK293T GFP-POI reporter cells (GSPT1)
Assay type: cell-based
Design: expressed in transfected cells; host or cells: HEK293T
Conditions: 1 μM, 24 h, HEK293T GFP reporter
recorded.metric: GSPT1% degradation at 1 μM (%)
Please state the figure in %; there is no need to write the unit.

N#Cc1ccc2cc(C(=O)Nc3ccc4c(c3)CN(C3CCC(=O)NC3=O)C4=O)ccc2c1 (stereo not drawn) = 11.5
O=C1CCC(N2Cc3cc(NC(=O)c4cccc(Oc5ccccc5)c4)ccc3C2=O)C(=O)N1 (stereo not drawn) = 14
O=C1CCC(N2Cc3cc(NC(=O)C4=Cc5ccc(OC(F)(F)F)cc5OC4)ccc3C2=O)C(=O)N1 (stereo not drawn) = 12.3
COc1ccc(Oc2cccc(C(=O)Nc3ccc4c(c3)CN(C3CCC(=O)NC3=O)C4=O)c2)cc1 (stereo not drawn) = 16.8
CS(=O)(=O)c1ccc2cc(C(=O)Nc3ccc4c(c3)CN(C3CCC(=O)NC3=O)C4=O)ccc2c1 (stereo not drawn) = 10.6
COc1cccc2c1OCC(C(=O)Nc1ccc3c(c1)CN(C1CCC(=O)NC1=O)C3=O)=C2 (stereo not drawn) = 2.6
COCOc1ccc2cc(C(=O)Nc3ccc4c(c3)CN(C3CCC(=O)NC3=O)C4=O)ccc2c1 (stereo not drawn) = 5.0
COc1cc(Br)cc2c1OCC(C(=O)Nc1ccc3c(c1)CN(C1CCC(=O)NC1=O)C3=O)=C2 (stereo not drawn) = 4.1
COc1cc(Oc2ccccc2)ccc1C(=O)Nc1ccc2c(c1)CN(C1CCC(=O)NC1=O)C2=O (stereo not drawn) = 12.6
COc1ccc2cccc(CC(=O)Nc3ccc4c(c3)CN(C3CCC(=O)NC3=O)C4=O)c2c1 (stereo not drawn) = 21.3

// lookup GSPT1% degradation at 1 μM for Cc1ccc2c(c1)OCC(C(=O)Nc1ccc3c(c1)CN(C1CCC(=O)NC1=O)C3=O)=C2 (stereo not drawn)
28

Proceed to COc1ccc(Oc2ccc(C(=O)Nc3ccc4c(c3)CN(C3CCC(=O)NC3=O)C4=O)cc2)cc1 (stereo not drawn)
4.8

Next: O=C1CCC(N2Cc3cc(NC(=O)c4ccc5cc(O)ccc5c4)ccc3C2=O)C(=O)N1 (stereo not drawn)
7.8

Another compound to look at: COc1ccc2c(c1)C=C(C(=O)Nc1ccc3c(c1)CN(C1CCC(=O)NC1=O)C3=O)CO2 (stereo not drawn)
14.4

Record: O=C1CCC(N2Cc3cc(NC(=O)c4cccc(C(=O)c5ccccc5)c4)ccc3C2=O)C(=O)N1 (stereo not drawn)
13.7

For CN1C(=O)CCc2cc(C(=O)Nc3ccc4c(c3)CN(C3CCC(=O)NC3=O)C4=O)ccc21 (stereo not drawn) then?
−3.4

----------
Molecular target: IKZF2 (Homo sapiens, UniProt Q96SW2+Q9UKS7)
Construct: expressed in transfected cells; host or cells: HEK293T (lentiviral transduction, puromycin selection, FACS sorting)
Sequence (Q9UKS7 whole entry): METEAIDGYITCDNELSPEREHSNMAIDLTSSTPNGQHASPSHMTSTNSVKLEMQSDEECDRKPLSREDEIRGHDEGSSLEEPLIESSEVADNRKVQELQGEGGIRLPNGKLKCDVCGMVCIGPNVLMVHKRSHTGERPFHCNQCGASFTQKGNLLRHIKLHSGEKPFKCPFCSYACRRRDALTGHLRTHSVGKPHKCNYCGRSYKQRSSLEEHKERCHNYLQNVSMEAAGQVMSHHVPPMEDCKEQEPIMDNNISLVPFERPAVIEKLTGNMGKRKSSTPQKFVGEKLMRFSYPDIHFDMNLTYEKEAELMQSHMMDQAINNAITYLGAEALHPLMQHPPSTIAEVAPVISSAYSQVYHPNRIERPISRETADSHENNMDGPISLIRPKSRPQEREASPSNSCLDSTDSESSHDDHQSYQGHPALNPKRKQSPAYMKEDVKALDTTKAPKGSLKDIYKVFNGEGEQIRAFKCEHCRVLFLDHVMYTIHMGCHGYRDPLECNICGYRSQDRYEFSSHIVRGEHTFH
Sequence (Q96SW2 whole entry): as the sequence (Q96SW2 whole entry) above
Sequence (Q16531 whole entry partner): as the sequence (Q16531 whole entry partner) above
Experiment: Flow cytometry for measuring degradation, HEK293T GFP-POI reporter cells (IKZF2)
Type: cell-based
Conditions: HEK-293T; Table 3
Dmax values for the molecules below.
Answer format: numeric, % implied, no suffix.

Example molecules with recorded Dmax:
CSc1ccc2cc(C(=O)Nc3ccc4c(c3)CN(C3CCC(=O)NC3=O)C4=O)ccc2c1 (centres unmarked) = 95.4
COCOc1ccc2cc(C(=O)Nc3ccc4c(c3)CN(C3CCC(=O)NC3=O)C4=O)ccc2c1 (centres unmarked) = 95.9
CN1C(=O)COc2cc(C(=O)Nc3ccc4c(c3)CN(C3CCC(=O)NC3=O)C4=O)ccc21 (centres unmarked) = 92.8
CC(=O)N1CCC[C@H]1C(=O)Nc1ccc2c(c1)CN(C1CCC(=O)NC1=O)C2=O (some centres unmarked) = 79.5

Field request: Dmax | item: N#Cc1ccc2cc(C(=O)Nc3ccc4c(c3)CN(C3CCC(=O)NC3=O)C4=O)ccc2c1 (centres unmarked)
96.6

Try the molecule C[C@H](NC(=O)c1ccccc1)C(=O)Nc1ccc2c(c1)CN(C1CCC(=O)NC1=O)C2=O (some centres unmarked)
80.5

Similarly, CN1C(=O)CCc2cc(C(=O)Nc3ccc4c(c3)CN(C3CCC(=O)NC3=O)C4=O)ccc21 (centres unmarked) ?
95.9

Please do the same for CS(=O)(=O)c1ccc2cc(C(=O)Nc3ccc4c(c3)CN(C3CCC(=O)NC3=O)C4=O)ccc2c1 (centres unmarked) as well.
95.1

----------
Entries annotated with measured GSPT1% degradation at 1 μM
Target: GSPT1 (Homo sapiens, UniProt P15170+Q96SW2)
Test: Flow cytometry for measuring degradation, HEK293T GFP-POI reporter cells (GSPT1)
Type: cell-based
Design: expressed in transfected cells; host or cells: HEK293T
Details: 1 μM, 24 h, HEK293T GFP reporter
Numbers only here, please. The scale is %.

COc1ccc2c(c1)OCC(C(=O)Nc1ccc3c(c1)CN(C1CCC(=O)NC1=O)C3=O)=C2 (stereo not shown) = 37.5
O=C1CCC(N2Cc3cc(NC(=O)C4=Cc5ccc(C(F)(F)F)cc5OC4)ccc3C2=O)C(=O)N1 (stereo not shown) = 11.9
O=C1CCC(N2Cc3cc(NC(=O)c4ccc5occc5c4)ccc3C2=O)C(=O)N1 (stereo not shown) = 4.4

For O=C1CCC(N2Cc3cc(NC(=O)c4ccc(Sc5ccccc5)cc4)ccc3C2=O)C(=O)N1 (stereo not shown) , what is its reported GSPT1% degradation at 1 μM?
19.8

And O=C1CCC(N2Cc3cc(NC(=O)c4ccc(Oc5ccccc5)cc4)ccc3C2=O)C(=O)N1 (stereo not shown) ?
16.9

And the next one, O=C1CCC(N2Cc3cc(NC(=O)c4cc5ccccc5o4)ccc3C2=O)C(=O)N1 (stereo not shown) ?
−1

Consider next the molecule O=C1CCC(N2Cc3cc(NC(=O)c4ccc5c(c4)OCCO5)ccc3C2=O)C(=O)N1 (stereo not shown) in the same way.
2.4

Next entry: COc1ccc(CCC(=O)Nc2ccc3c(c2)CN(C2CCC(=O)NC2=O)C3=O)cc1 (stereo not shown)
9.9

Lookup O=C1CCC(N2Cc3cc(NC(=O)c4ccc5c(c4)OCO5)ccc3C2=O)C(=O)N1 (stereo not shown)
3.3

Now try O=C1CCC(N2Cc3cc(NC(=O)Cc4ccc5ccccc5c4)ccc3C2=O)C(=O)N1 (stereo not shown) .
69.4
